experimental.target: mouse Mcl-1 with truncations of 151 amino acid residues at its N-terminus and 23 residues at its C-terminus (mouse) (UniProt P97287)
Sequence (P97287 152-308): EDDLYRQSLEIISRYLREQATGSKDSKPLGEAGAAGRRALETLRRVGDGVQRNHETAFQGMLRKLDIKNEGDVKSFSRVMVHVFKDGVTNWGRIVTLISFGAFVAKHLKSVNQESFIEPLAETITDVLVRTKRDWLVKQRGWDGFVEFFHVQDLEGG
method.notes: competition phage ELISA
pIC50: −log10 of the molar value. No end group written: not given here. FLAG = FLAG tag
Reported pIC50 values follow for various binders

binder: RAELPPEFAAQLRKIGDKVYCTWSAP-{GGGT-g3(249-406)} (not fully specified (N-terminus)) [mNoxaA BH3 wild type, phage-displayed]
pIC50: 7.41
--
binder: {FLAG}-RAELPPEFAAQLAKIGDKVYCTWSAP-{GGGT-g3(249-406)} [mNoxaA BH3 R13A, phage-displayed]
pIC50: 7.24
--
binder: QEDAIRNIARHLAQVGDSMDRSIPPG [Bid BH3 I4A, phage-displayed]
pIC50: 6.87
--
binder: AEDIIRNIARHLAQVGDSMDRSIPPG [Bid BH3 Q1A, phage-displayed]
pIC50: 7.10
--
binder: {FLAG}-REELPPEFAAQLRKIGDKVYCTWSAP-{GGGT-g3(249-406)} [mNoxaA BH3 A2E, phage-displayed]
pIC50: 7.66
--
binder: PASTMGQVGRQLAIIGDDINRRYDSE [Bak BH3 S2A, phage-displayed]
pIC50: 7.80
